Give measured GI50 for each item. Keep answers brief.
# System: SF-539 CNS
# protocol text: NCI tumour cell line growth inhibition, 48 h

Request: Item CCC[CH2][Sn](=[O])[CH2]CCC has what recorded GI50?
Response: > 50000 nM

Request: Item O=C(O)Cc1cccc2c(=O)cc(-c3ccccc3)oc12 has what recorded GI50?
Response: 398000 nM

Request: Item Cc1cc2c(F)c(Oc3ncnc(Nc4ccc(N5C[C@@H](C)N[C@@H](C)C5)cc4)c3C#N)cc(F)c2[nH]1 has what recorded GI50?
Response: 1530 nM

Request: Item COc1ccccc1C#Cc1ccccc1C#Cc1ccc(OCCCCCCOc2ccccc2C#Cc2ccccc2C#Cc2ccccc2OC)cc1 has what recorded GI50?
Response: > 100000 nM

Request: Item COc1cc(CCC[P+](c2ccccc2)(c2ccccc2)c2ccccc2)c(OC)c2c1OCO2 has what recorded GI50?
Response: 2310 nM

Request: Item NC(=S)N/N=C/c1ccc(OC(=O)COc2cc(Cl)c(Cl)cc2Cl)cn1 has what recorded GI50?
Response: 2370 nM

Request: Item CCOC(=O)c1[nH]c2cc(Cl)ccc2c1[C@@H](C(=O)NC(C)(C)C)N(CC)C(=O)CCCCC#Cc1cccc2c1CN(C1CCC(=O)NC1=O)C2=O (some centres not stated) has what recorded GI50?
Response: 1740 nM

Request: Item C=C(C)[C@@H]1CC[C@]2(CO)CC[C@]3(C)[C@H](CC[C@@H]4[C@@]5(C)CCCNC(C)(C)[C@@H]5CC[C@]43C)[C@@H]12 has what recorded GI50?
Response: 1580 nM

Request: Item Oc1ccccc1-c1nn(CNc2ccc(Cl)cc2)c(=S)o1 has what recorded GI50?
Response: 23800 nM

Request: Item COc1ccc(Nc2nc(NCCNc3ccnc4cc(Cl)ccc34)nc(N3CCOCC3)n2)cc1 has what recorded GI50?
Response: 2180 nM

Request: Item CC1(C)N=C(N)N=C(N)N1c1ccc(CNC(=O)Nc2ccc(S(=O)(=O)F)c(Cl)c2)c(Cl)c1 has what recorded GI50?
Response: 1110 nM

Request: Item COc1cc(-c2nn(-c3cccc(NC(=O)Nc4ccc(Cl)c(C(F)(F)F)c4)c3)cc2-c2ccncc2)ccc1Cl has what recorded GI50?
Response: 1660 nM

Request: Item CCSC[C@@H]1C[C@](O)(c2ccc(Cl)cc2)[C@@H](c2ccc(Cl)cc2)O1 has what recorded GI50?
Response: 16500 nM

Request: Item COC[C@H](NC(=O)c1cnc(C)s1)C(=O)N[C@@H](COC)C(=O)N[C@@H](Cc1ccccc1)C(=O)[C@@]1(C)CO1 has what recorded GI50?
Response: 27700 nM

Request: Item O=S(=O)(N=C1C(Cl)=C(Cl)C(=NS(=O)(=O)c2ccccc2)C(Cl)=C1Cl)c1ccccc1 has what recorded GI50?
Response: 45600 nM

Request: Item COc1cc2nc(Nc3cccc(Cl)c3)nc(N)c2cc1OC has what recorded GI50?
Response: 10200 nM

Request: Item COc1cc2nc(N3CCCN(C)CC3)nc(NC3CCN(Cc4ccccc4)CC3)c2cc1OC has what recorded GI50?
Response: 1680 nM

----------
# Tested on: MCF7 breast
# protocol text: NCI tumour cell line growth inhibition, 48 h
Give measured TGI for each item. Keep answers brief.

Request: Item COc1cc(C2C=C(c3ccccc3)Oc3cc4c(cc32)OCO4)cc(OC)c1OC (stereo not given) has what recorded TGI?
Response: > 100 µM

Request: Item COC(=O)C1=C(C)NC(=O)N2[C@@H](CCOCc3ccccc3)CC[C@@H]12 has what recorded TGI?
Response: > 50 µM

Request: Item CCOP(=O)(CC(=O)C1CC1)OCC has what recorded TGI?
Response: > 100 µM

Request: Item COc1ccc(/C=N\N(C)Cc2cccc3ccsc23)cc1 has what recorded TGI?
Response: > 100 µM

Request: Item CO/C=C(/C(=O)OC)[C@@H]1C[C@@H]1c1ccc2ccccc2c1 has what recorded TGI?
Response: > 100 µM

Request: Item O=c1[nH]c(Nc2ccc(Br)c(C(F)(F)F)c2)nc2nc[nH]c12 has what recorded TGI?
Response: > 100 µM

Request: Item Cn1c(-c2ccco2)ccc1-c1ccc(C=O)o1 has what recorded TGI?
Response: > 100 µM

Request: Item CCSC[C@@H]1C[C@](O)(c2ccc(Cl)cc2)[C@@H](c2ccc(Cl)cc2)O1 has what recorded TGI?
Response: 48.5 µM

Request: Item COc1ccc(C(=O)/C=C/c2ccc(OCCCCCCCCCCOc3ccc(/C=C/C(=O)c4ccc(OC)cc4)cc3)cc2)cc1 has what recorded TGI?
Response: > 100 µM

Request: Item COc1ccc(/C=C2\N=C(N3CCCC(CO)C3)NC2=O)cc1 (stereo not given) has what recorded TGI?
Response: > 100 µM

Request: Item CCCCSC1=N/C(=C\c2ccccc2O)C(=O)N1 has what recorded TGI?
Response: > 100 µM

Request: Item CSc1cc([C@@H]2C[C@H]2c2ccc(Cl)cc2)on1 has what recorded TGI?
Response: 41 µM

Request: Item O=[N+]([O-])c1ncc(N(CCO)CCO)s1 has what recorded TGI?
Response: > 100 µM

Request: Item CCn1c(SCC(=O)N/N=C2\SCC(=O)N2c2ccc(C)cc2)nc2ccccc2c1=O has what recorded TGI?
Response: 45.9 µM

Request: Item COC(=O)C(CNC(=O)/C=C/c1ccc(OC)c(OC)c1)NC(=O)/C=C/c1ccc(OC)c(OC)c1 (stereo not given) has what recorded TGI?
Response: > 100 µM

Cited source: PubChem BioAssay (NCI)
